- TARGET_SYSTEM: RSV fusion glycoprotein (RSV-F) (respiratory syncytial virus)
- PROTOCOL_SUMMARY: biolayer interferometry (BLI), rIgG1 with M428L/N434S
ASSAY_ENDPOINT: Kd
I'd appreciate it if you included the unit after the number.

# get_value(readout='Kd', item= MPH12-v17 (VH-FRGL-D62E/VL-D25S) (antibody, V domains shown, also called MPH12 VH-FRGL-D62E / MPH12 VL-D25S) VH: QVQLVESGGGLVKPGGSLRLSCAASGFTFSGFYMKWIRQAPGKGLEWVSSISASGSYTNYAESVEGRFTISRDNAKNSLYLQMNSLRAEDTAVYYCARGDSYCGASACHGEFFHKWGQGTLVTVSS VL: QSVLTQPPSVSGAPGQRVTISCTGSSSNIGADFDVHWYQQLPGTAPKLLIYGNINRPSGVPDRFSGSRSGTSAFLAITRLQAEDEADYYCQSYDRSLHYVFGAGTKVTVL ) 390 pM

Proceed to MPH12-v28 (VH-FRGL-S63A/VL-S26A) (antibody, V domains shown, also called MPH12 VH-FRGL-S63A / MPH12 VL-S26A) VH: QVQLVESGGGLVKPGGSLRLSCAASGFTFSGFYMKWIRQAPGKGLEWVSSISASGSYTNYADAVEGRFTISRDNAKNSLYLQMNSLRAEDTAVYYCARGDSYCGASACHGEFFHKWGQGTLVTVSS VL: QSVLTQPPSVSGAPGQRVTISCTGSDANIGADFDVHWYQQLPGTAPKLLIYGNINRPSGVPDRFSGSRSGTSAFLAITRLQAEDEADYYCQSYDRSLHYVFGAGTKVTVL 380 pM

Proceed to MPH12-v29 (VH-FRGL-D62E/VL-S26A) (antibody, V domains shown, also called MPH12 VH-FRGL-D62E / MPH12 VL-S26A) VH: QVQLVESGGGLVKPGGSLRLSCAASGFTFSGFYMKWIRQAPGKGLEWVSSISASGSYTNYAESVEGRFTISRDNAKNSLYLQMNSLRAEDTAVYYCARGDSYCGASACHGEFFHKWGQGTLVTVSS VL: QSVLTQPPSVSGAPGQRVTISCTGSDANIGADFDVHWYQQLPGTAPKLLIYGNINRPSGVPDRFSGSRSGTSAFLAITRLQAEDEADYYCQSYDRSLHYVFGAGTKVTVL 340 pM
